Test system: Renilla luciferase RNA
Method Notes: Barcoded aptazyme variant library screen: un-cleaved Renilla luciferase RNA by barcode read counts, HEK293-T cells
Assay type: cell-based
Condition Details: un-cleaved Renilla luciferase RNA, HEK293-T cells cultured with 1 mM theophylline (ON) over without theophylline (OFF); barcode read counts, triplicate
Value Kind: Fold change in RNA expression between the ON state and the OFF state (fold)
I only need the number, in fold, no unit after it.

Molecule	Unit Abbreviation	Obs Value
RA291 (nucleic acid, expressed or natural sequence) DNA: GCTGTCACCGGAATACCAGCATCGTCTTGATGCCCTTGGAAGTCCGGTCTGATGAGTCCCATAAGGACGAAACAGC	fold	1.0
RA278 (nucleic acid, expressed or natural sequence) DNA: GCGCGTCCTGGATTCGAGTGATACCAGCATCGTCTTGATGCCCTTGGCAGCACTCGGAAACGCGTACATCCAGCTGACGAGTCCCAAATAGGACGAAACGCGC	fold	1.0
RA157 (nucleic acid, expressed or natural sequence) DNA: GCGCGTCCTGGATTCGCGGAAACGCGTAAGAATACCAGCATCGTCTTGATGCCCTTGGAAGTCTCATCCAGCTGACGAGTCCCAAATAGGACGAAACGCGC	fold	1.3
RA126 (nucleic acid, expressed or natural sequence) DNA: GCGCGTCCTGGATTCGCGGAAACGCGTACAAGAATACCAGCATCGTCTTGATGCCCTTGGAAGTCTTCCAGCTGACGAGTCCCAAATAGGACGAAACGCGC	fold	1.5
RA141 (nucleic acid, expressed or natural sequence) DNA: GCGCGTCCTGGATTCGCGGAAACGCGTACATCCGGAATACCAGCATCGTCTTGATGCCCTTGGAAGTCCGGCCAGCTGACGAGTCCCAAATAGGACGAAACGCGC	fold	1.4
RA245 (nucleic acid, expressed or natural sequence) DNA: GGGAATACCAGCATCGTCTTGATGCCCTTGGAAGTCCCGCGTCCTGGATTCGCGGAAACGCGTACATCCAGCTGACGAGTCCCAAATAGGACGAAACGCGC	fold	1.1

// returns reported Fold change in RNA expression between the ON state and the OFF state for input RA097 (nucleic acid, expressed or natural sequence) DNA: GCGCGTCCTGGATTCGCGGAAACGCGTACATCCAGCTGACGAGTCCCAGAATACCAGCATCGTCTTGATGCCCTTGGAAGTCTAAATAGGACGAAACGCGC
1.6

Bench note: what Fold change in RNA expression between the ON state and the OFF state did RA244 (nucleic acid, expressed or natural sequence) DNA: GCGCGTCCTGGATTCGCGGAAACGCGTCCGGAATACCAGCATCGTCTTGATGCCCTTGGAAGTCCGGACATCCAGCTGACGAGTCCCAAATAGGACGAAACGCGC show?
1.1

Data request, read-out Fold change in RNA expression between the ON state and the OFF state, for RA181 (nucleic acid, expressed or natural sequence) DNA: GCGCGCCGGAATACCAGCATCGTCTTGATGCCCTTGGAAGTCCGGTCCTGGATTCGCGGAAACGCGTACATCCAGCTGACGAGTCCCAAATAGGACGAAACGCGC
1.3

What value of Fold change in RNA expression between the ON state and the OFF state has been reported for the following molecule? RA076 (nucleic acid, expressed or natural sequence) DNA: GCGCGTCCTGGATTCGCGGGAGAATACCAGCATCGTCTTGATGCCCTTGGAAGTCTCAAACGCGTACATCCAGCTGACGAGTCCCAAATAGGACGAAACGCGC
1.8

Please report the recorded Fold change in RNA expression between the ON state and the OFF state for RA219 (nucleic acid, expressed or natural sequence) DNA: GCGCGTCCTGGATTCGCGGAAACGCGTACATCCAGCGGAATACCAGCATCGTCTTGATGCCCTTGGAAGTCCTGACGAGTCCCAAATAGGACGAAACGCGC .
1.2

Fill in: Fold change in RNA expression between the ON state and the OFF state of RA087 (nucleic acid, expressed or natural sequence) DNA: GCGCGTCCTGGATTCGCGGAAACGCGTACATCCAGCTGACGAGCGAGAATACCAGCATCGTCTTGATGCCCTTGGAAGTCTCGTCCCAAATAGGACGAAACGCGC is ___
1.7

Origin of measurements: patent US20260167959A1
